test system: MGC-803; experiment: Cytotoxicity against human MGC803 cells after 72 hrs by MTT assay; type: functional, cell-based; conditions: MGC-803, 72 h
Overview of reported log10(IC50) across a group of compounds:
readout_name: log10(IC50) (log10 of the value in µM)

[[record]]
compound_string = "CC(=O)O[C@H]1CC[C@@]2(C)C(=CC[C@@H]3[C@@H]2CC[C@]2(C)C(=C(/C#N)C(N)=O)/C(=C/c4ccc(Cl)cc4Cl)C[C@@H]32)C1"
observed_result = 0.87

[[record]]
compound_string = "CC(=O)O[C@H]1CC[C@@]2(C)C(=CC[C@@H]3[C@@H]2CC[C@]2(C)C(=C(/C#N)C(N)=O)/C(=C/c4ccco4)C[C@@H]32)C1"
observed_result = -0.92

[[record]]
compound_string = "COc1cc(/C=C2\\C[C@H]3[C@@H]4CC=C5C[C@@H](O)CC[C@]5(C)[C@H]4CC[C@]3(C)\\C2=C(\\C#N)C(N)=O)cc(OC)c1OC"
observed_result = 0.26

[[record]]
compound_string = "CC(=O)O[C@H]1CC[C@@]2(C)C(=CC[C@@H]3[C@@H]2CC[C@]2(C)C(=C(/C#N)C(N)=O)/C(=C/c4ccccc4Cl)C[C@@H]32)C1"
observed_result = -0.24

[[record]]
compound_string = "CC(=O)O[C@H]1CC[C@@]2(C)C(=CC[C@@H]3[C@@H]2CC[C@]2(C)C(=C(/C#N)C(N)=O)/C(=C/c4cccc(Cl)c4)C[C@@H]32)C1"
observed_result = -0.96

[[record]]
compound_string = "CC(=O)O[C@H]1CC[C@@]2(C)C(=CC[C@@H]3[C@@H]2CC[C@]2(C)C(=C(/C#N)C(N)=O)/C(=C/c4ccc(F)c(F)c4)C[C@@H]32)C1"
observed_result = 0.19


----------
tested on: SMMC-7721; assay: Cytotoxicity against human SMMC7721 cells after 72 hrs by MTT assay; assay type: functional, cell-based; settings: SMMC-7721, 72 h
readout_name: IC50 (µM)

[[record]]
compound_string = "COc1cccc(/C=C2\\C[C@H]3[C@@H]4CC=C5C[C@@H](OC(C)=O)CC[C@]5(C)[C@H]4CC[C@]3(C)\\C2=C(\\C#N)C(N)=O)c1"
assay_system = "SMMC-7721"
readout_name = "IC50"
unit_descriptor = "µM"
observed_result = 11.5

[[record]]
compound_string = "CC(=O)O[C@H]1CC[C@@]2(C)C(=CC[C@@H]3[C@@H]2CC[C@]2(C)C(=C(/C#N)C(N)=O)/C(=C/c4ccc(F)c(F)c4)C[C@@H]32)C1"
assay_system = "SMMC-7721"
readout_name = "IC50"
unit_descriptor = "µM"
observed_result = 5.66

[[record]]
compound_string = "CC(=O)O[C@H]1CC[C@@]2(C)C(=CC[C@@H]3[C@@H]2CC[C@]2(C)C(=C(/C#N)C(N)=O)/C(=C/c4ccc(Cl)cc4Cl)C[C@@H]32)C1"
assay_system = "SMMC-7721"
readout_name = "IC50"
unit_descriptor = "µM"
observed_result = 5.04

[[record]]
compound_string = "C[C@]12CC[C@H](O)CC1=CC[C@@H]1[C@@H]2CC[C@]2(C)C(=C(/C#N)C(N)=O)/C(=C/c3ccccc3Cl)C[C@@H]12"
assay_system = "SMMC-7721"
readout_name = "IC50"
unit_descriptor = "µM"
observed_result = 3.63

[[record]]
compound_string = "CC(=O)O[C@H]1CC[C@@]2(C)C(=CC[C@@H]3[C@@H]2CC[C@]2(C)C(=C(/C#N)C(N)=O)/C(=C/c4ccc(Br)cc4)C[C@@H]32)C1"
assay_system = "SMMC-7721"
readout_name = "IC50"
unit_descriptor = "µM"
observed_result = 16.5

[[record]]
compound_string = "CC(=O)O[C@H]1CC[C@@]2(C)C(=CC[C@@H]3[C@@H]2CC[C@]2(C)C(=C(/C#N)C(N)=O)/C(=C/c4ccc(Cl)cc4)C[C@@H]32)C1"
assay_system = "SMMC-7721"
readout_name = "IC50"
unit_descriptor = "µM"
observed_result = 3.9

